# experimental.system: dopamine D2 receptor (Rattus norvegicus, UniProt P61169)
# Construct: homogenized rat striatal brain tissue
# Sequence (P61169 whole entry): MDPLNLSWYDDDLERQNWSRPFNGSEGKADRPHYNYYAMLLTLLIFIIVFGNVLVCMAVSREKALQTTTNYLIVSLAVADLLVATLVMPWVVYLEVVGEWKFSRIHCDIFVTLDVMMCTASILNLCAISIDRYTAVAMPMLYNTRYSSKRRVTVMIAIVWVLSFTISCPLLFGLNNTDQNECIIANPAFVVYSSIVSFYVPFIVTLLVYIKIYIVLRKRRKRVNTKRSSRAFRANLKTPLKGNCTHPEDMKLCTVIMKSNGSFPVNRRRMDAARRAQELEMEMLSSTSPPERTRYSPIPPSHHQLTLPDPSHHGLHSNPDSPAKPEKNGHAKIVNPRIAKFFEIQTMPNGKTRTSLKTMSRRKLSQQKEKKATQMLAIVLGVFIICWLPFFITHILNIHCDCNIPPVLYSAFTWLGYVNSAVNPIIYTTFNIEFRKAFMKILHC
# protocol.description: dopamine D2 receptor affinity, 3H-quinpirole, homogenized rat striatal brain tissue (modified Seemen and Schaus)
measured.metric: IC50 (nM)

• COc1ccc2c(c1)OC(CN(C)CCCc1c[nH]c3ccc(OC)cc13)CO2 (stereo not drawn) = 1230
• Oc1ccc2c(c1)OC(CNCCCc1c[nH]c3ccccc13)CO2 (stereo not drawn) = 0.3

[a] Cn1cc(CCCNCC2COc3ccc(NS(C)(=O)=O)cc3O2)c2ccccc21 (stereo not drawn)
[b] COc1ccc2[nH]cc(CCCCNCC3COc4ccc(O)cc4O3)c2c1 (stereo not drawn)
[Q] Identify the entry with the larger IC50. Options: a and b Please respond with the label that marks your chosen entry.
[A] a
(a: 20.4 nM, b: 0.39 nM)

----------
// pIC50 lookup, one value per entry
# System: 3H 5-hydroxytryptamine uptake
# protocol.description: inhibition of 3H 5-hydroxytryptamine uptake, crude synaptosomes from rat frontal cortex (modified Wood and Willie)
# Type: biochemical
# conditions.used: nonspecific uptake in presence of 10 μM fluoxetine, read-out: Inhibition 5-HT Uptake IC50
Just so you know, pIC50 here is -log10 of the concentration in molar units; reply with that number alone.

• CNCCC(Oc1ccc(C(F)(F)F)cc1)c1ccccc1 (centres unmarked) [fluoxetine, reference compound] = 7.15
• CN(C)C/C=C(/c1ccc(Br)cc1)c1cccnc1 [zimelidine, reference compound] = 6.62
• Oc1ccc2[nH]cc(CCCNCC3COc4ccccc4O3)c2c1 (centres unmarked) = 7.28

[Q] What value of measured pIC50 is listed for Fc1ccc2[nH]cc(CCCNCC3COc4ccccc4O3)c2c1 (centres unmarked) ?
[A] 6.81

[Q] What value of measured pIC50 is listed for COc1ccc2c(c1)OC(CNCCCCc1c[nH]c3ccc(OC)cc13)CO2 (centres unmarked) ?
[A] 6.13

[Q] What value of measured pIC50 is listed for CS(=O)(=O)Nc1ccc2c(c1)OC(CNCCCCc1c[nH]c3ccccc13)CO2 (centres unmarked) ?
[A] 7.87

[Q] What value of measured pIC50 is listed for COc1ccc2[nH]cc(CCCNCC3COc4ccccc4O3)c2c1 (centres unmarked) ?
[A] 5.62

[Q] What value of measured pIC50 is listed for CN(C)CCCN1c2ccccc2CCc2ccccc21 [imipramine, reference compound] ?
[A] 6.92

----------
# experimental.system: dopamine D2 receptor (Rattus norvegicus, UniProt P61169)
# Construct: homogenized rat striatal brain tissue
# protocol.description: dopamine D2 receptor affinity, 3H-quinpirole, homogenized rat striatal brain tissue (modified Seemen and Schaus)
measured.metric: IC50 (nM)

Recorded IC50, per entry:
- COc1ccc2c(c1)O[C@@H](CNCCCCc1c[nH]c3ccccc13)CO2 [Example 2]: 82
- COc1ccc2[nH]cc(CCCCNCC3COc4ccc(NS(C)(=O)=O)cc4O3)c2c1 (stereo not shown) [Example 14]: 4.75

[A] c1ccc(COc2ccc3[nH]cc(CCCNCC4COc5ccccc5O4)c3c2)cc1 (stereo not shown) [Example 4]
[B] Fc1ccc2[nH]cc(CCCCNCC3COc4ccccc4O3)c2c1 (stereo not shown) [Example 18]
[Q] Identify the entry with the smaller IC50: A or B . Please respond with the label that marks your chosen entry.
[A] B
(B: 18.4 nM, A: 102 nM)

The measured values listed here are drawn from patent US5750724A.
